Values from patent US20250376519A1

Let's look at some binders and their measured kon.
subject_of_test: T1, human DLL3 (ACRO, DLL3-H52H4) (human, UniProt Q9NYJ7 27-492)
T1 construct: Bought
T1 sequence: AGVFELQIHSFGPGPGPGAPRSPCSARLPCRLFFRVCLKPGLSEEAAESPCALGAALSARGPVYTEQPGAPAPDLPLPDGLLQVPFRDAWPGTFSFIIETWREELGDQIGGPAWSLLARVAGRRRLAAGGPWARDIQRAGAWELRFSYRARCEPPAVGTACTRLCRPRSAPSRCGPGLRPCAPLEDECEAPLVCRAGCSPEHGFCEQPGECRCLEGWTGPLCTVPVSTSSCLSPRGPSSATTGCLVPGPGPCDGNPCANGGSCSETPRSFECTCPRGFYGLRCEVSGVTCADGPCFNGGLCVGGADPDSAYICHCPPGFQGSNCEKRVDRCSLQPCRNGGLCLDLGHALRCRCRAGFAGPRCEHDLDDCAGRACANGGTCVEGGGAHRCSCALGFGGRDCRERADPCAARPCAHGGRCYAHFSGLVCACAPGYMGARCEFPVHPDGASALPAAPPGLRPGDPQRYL
protocol_summary: SPR Biacore 8K, Ab captured on Protein A
observation_type: kon (M⁻¹ s⁻¹)

>  <binder>
hu30L2H1 (antibody, human IgG1, kappa, V domains shown) VH: EVQLVQSGAEVKKPGASVKVSCKASGYTFTDYYMNWVRQAPGQSLEWMGIINPYNGDTSYNQKFRGRVTITVDKSASTAYMELSSLRSEDTAVYYCARYHYGPHLEGYFDVWGQGTTVTVSS VL: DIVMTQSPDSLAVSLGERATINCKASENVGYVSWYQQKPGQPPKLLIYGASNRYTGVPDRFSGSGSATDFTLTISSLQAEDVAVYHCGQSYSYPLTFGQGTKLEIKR

>  <measure_unit>
M⁻¹ s⁻¹

>  <numeric_value>
867000

$$$$
>  <binder>
hu30L1H5 (antibody, human IgG1, kappa, V domains shown) VH: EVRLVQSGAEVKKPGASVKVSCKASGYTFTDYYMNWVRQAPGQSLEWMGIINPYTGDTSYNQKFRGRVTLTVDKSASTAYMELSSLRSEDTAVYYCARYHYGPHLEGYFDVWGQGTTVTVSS VL: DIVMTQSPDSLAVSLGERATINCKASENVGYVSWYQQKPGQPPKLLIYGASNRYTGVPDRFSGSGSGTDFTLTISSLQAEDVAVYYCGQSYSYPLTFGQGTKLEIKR

>  <measure_unit>
M⁻¹ s⁻¹

>  <numeric_value>
1.23e+06

$$$$
